Read-out: Monocyte Chemoattractant Protein-1 (MCP1), CCL2 (gene 6347)
Test protocol: BSK_SAg_MCP1: BioMAP Diversity Plus: SAg Assay for Monocyte Chemoattractant Protein-1 (MCP1) Biomarker Activity (AID 2283090)
Test context: primary human HUVEC with PBMC; actives raise or lower the signal
Activity calls are given as the source filed them. How the source made its calls: active means hit-call score of the fitted dose curve at least 0.9, where 1 is the maximum; inactive means score below 0.9.
Outcomes: Y (active), N (inactive)

| Molecule | Class label |
| --- | --- |
| Nc1ccc(N=Nc2ccccc2)cc1 | N |
| O=C1CCCO1 | N |
| CO[C@@H]1[C@H](OC(=O)NC(=O)CCl)CC[C@]2(CO2)[C@H]1[C@@]1(C)O[C@@H]1CC=C(C)C | N |
| CC(C)(O)c1cnn2c(-c3ccc(F)c(-c4c(F)cccc4C#N)c3)cnc2n1 | N |
| Oc1ccccc1Cl | N |
| C[C@]12C=CC3=C4CCC(=O)C=C4CC[C@H]3[C@@H]1CC[C@@H]2O | N |
| Oc1ccc2ccc3cccc4ccc1c2c34 | Y |
| Cc1ccc(N)cc1 | N |
| O=C(O)C1C2CCC(O2)C1C(=O)O (centres undefined) | N |
| CCC(C)c1ccc(O)cc1 (centres undefined) | N |
| C=CCc1ccc2c(c1)OCO2 | N |
| OCCOCCO | N |
| CC(C)(C)OOC(=O)c1ccccc1 | N |
| Clc1ccc(C(c2ccc(Cl)cc2)C(Cl)(Cl)Cl)cc1 | Y |

###

Tgt: Oxysterols receptor LXR-beta (Homo sapiens)
Test protocol: ATG_LXRb_TRANS: Attagene TRANS-FACTORIAL HepG2 Assay for human Liver X Receptor beta (LXRb) (AID 2282981)
Test context: HepG2 Attagene TRANS GAL4-LXRb reporter, mRNA
Inconclusive results are not listed. Calls of active or inactive are those of the source. Rule for the calls: active = hit-call score of the fitted dose curve at least 0.9, where 1 is the maximum; inconclusive = response in the unintended direction; inactive = score below 0.9.
Outcomes: active, inactive

| Compound | Class label |
| --- | --- |
| CCCSC(=O)N(CCC)CCC | inactive |
| O=P(OCCCl)(OCCCl)OCCCl | inactive |
| CCN(CC)CCO | inactive |
| ClC1=C(Cl)C2(Cl)C3C(Cl)C=CC3C1(Cl)C2(Cl)Cl (stereo unspecified) | inactive |
| Cc1cc(N=Nc2ccccc2C)ccc1N | inactive |
| CCC12COCN1COC2 | inactive |
| ClCCOCCCl | inactive |
| COC(=O)Nc1nc2ccccc2[nH]1 | inactive |
| CCNS(=O)(=O)C(F)(F)C(F)(F)C(F)(F)C(F)(F)C(F)(F)C(F)(F)C(F)(F)C(F)(F)F | inactive |
| Nc1ccc([N+](=O)[O-])cc1 | inactive |
| CC(C)(OOC(C)(C)c1ccccc1)c1ccccc1 | inactive |
| Oc1ccccc1Cl | inactive |
| O=C1CCCO1 | inactive |
| OCCOCCO | inactive |
| O=[N+]([O-])C(Br)(CO)CO | active |
| CC(O)CCO (stereo unspecified) | inactive |

###

Read-out: urokinase plasminogen activator (uPA), PLAU (gene 5328)
Test protocol: BSK_BE3C_uPA: BioMAP Diversity Plus: BE3C Assay for urokinase plasminogen activator (uPA) Biomarker Activity (AID 2283038)
Test context: primary human bronchial epithelial cells; actives raise or lower the signal
Protocol: BSK_BE3C is a cell-based, multiplexed-readout assay that uses bronchial epithelial cell, a human lung primary cell, with measurements taken at 24 hours after chemical dosing in a 96-well plate.BSK_BE3CA is an assay component measured in the BSK_BE3C assay. It measures uPA antibody related to regulation of gene expression using ELISA technology.Data from the assay component BSK_BE3CA was analyzed into 1 assay endpoint. […]
Activity calls are given as the source filed them. How the source made its calls: active means hit-call score of the fitted dose curve at least 0.9, where 1 is the maximum; inactive means score below 0.9.
Outcomes: yes = active, no = inactive

| Compound | Class label |
| --- | --- |
| O=C(Nc1ccccc1)c1ccccc1I | no |
| [Cl-].[Cl-].[Hg+2] | yes |
| CCCCCCCCOC(=O)c1ccc(C(=O)OCCCCCCCC)c(C(=O)OCCCCCCCC)c1 | no |
| C[N+](C)(C)CC1CO1 (stereo not given) | no |
| [O-][Cl+]O | no |
| Oc1ccccc1Cl | no |
| Cn1cc(-c2ccccc2)c(=O)c(-c2cccc(C(F)(F)F)c2)c1 | no |
| CNC(=O)Oc1cccc2c1OC(C)(C)C2 | no |
| CO[C@@H]1[C@H](OC(=O)NC(=O)CCl)CC[C@]2(CO2)[C@H]1[C@@]1(C)O[C@@H]1CC=C(C)C | no |
| CC(C)(OOC(C)(C)c1ccccc1)c1ccccc1 | no |
| Cc1ccc(N=C=O)cc1N=C=O | no |
| N#CC(Br)Br | no |
| O=C(N[C@H](c1ccccc1)[C@@H]1CN2CCC1CC2)c1c(Cl)ccc(C(F)(F)F)c1Cl | yes |
| CCCCOC(=O)c1ccccc1C(=O)OCc1ccccc1 | no |
| CCCCCCCCCCCCCN1CC(C)OC(C)C1 (stereo not given) | no |
| C1=Cc2cccc3cccc1c23 | no |
| Cc1cccc(N)c1N | no |
| OCCCBr | no |
| CS(=O)(=O)NC(=O)c1cc(Oc2ccc(C(F)(F)F)cc2Cl)ccc1[N+](=O)[O-] | no |
| CCC12COCN1COC2 | no |
| COP(=S)(OC)SCN1C(=O)c2ccccc2C1=O | no |
| OCCCl | no |
| c1ccc2c(c1)oc1ccccc12 | no |
| COc1cc(C=O)cc2c1[C@H](COC(N)=O)[C@]1(OC(C)=O)ON2C[C@H]2[C@@H]1N2C(C)=O | yes |
| Cc1cc(N=Nc2ccccc2C)ccc1N | no |
| c1ccc2c(c1)-c1cccc3cccc-2c13 | no |
| CCCSC(=O)N(CCC)CCC | no |
| Nc1cc(Cl)cc(C(=O)O)c1Cl | no |
| Brc1ccc(Oc2ccccc2)cc1 | no |
| c1ccc(NNc2ccccc2)cc1 | no |

###

Tgt: Cytochrome P450 2C19 (Homo sapiens) (UniProt P33261)
Test protocol: NVS_ADME_hCYP2C19: NovaScreen (NVS) CYP450-related Enzyme Activity (ADME) Assay for human CYP2C19 (AID 2283113);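 further: potency for inhibition seen as loss of fluorescent signal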
Inconclusive results are not listed. Activity calls are given as the source filed them. How the source made its calls: active means hit-call score of the fitted dose curve at least 0.9, where 1 is the maximum; inconclusive means response in the unintended direction; inactive means score below 0.9.
Outcome measure: AC50

| Smiles str | Outcome measure | Experimental value |
| --- | --- | --- |
| [Cl-].[Cl-].[Hg+2] | AC50 | 0.812 µM (active) |
| C[C@]12C=CC3=C4CCC(=O)C=C4CC[C@H]3[C@@H]1CC[C@@H]2O | AC50 | 5.75 µM (active) |
| CCCCCCCCn1sccc1=O | AC50 | 6.04 µM (active) |
| Clc1ccc(C(c2ccc(Cl)cc2)C(Cl)Cl)cc1 | AC50 | 4.79 µM (active) |
| CCCCOC(=O)c1ccccc1C(=O)OCc1ccccc1 | AC50 | 2.72 µM (active) |
| CCOC(=O)[C@]1(c2ccccc2)Oc2ccccc2[C@@H]1N | AC50 | 2.09 µM (active) |
| Nc1ccc([N+](=O)[O-])cc1 | AC50 | 6.15 µM (active) |

###

Test protocol: CCTE_Simmons_CellTiterGLO_HEK293T: Viability Assessment in CCTE's Assays for Thyroperoxidase (TPO) Inhibition, Simmons Lab (AID 2283665)
Records with an inconclusive call do not appear. The source made the active and inactive calls. The calls were made as follows: active = hit-call score of the fitted dose curve at least 0.9, where 1 is the maximum; inconclusive = response in the unintended direction; inactive = score below 0.9.
Outcomes: active, inactive

| Smiles str | Class label |
| --- | --- |
| CCOC(=O)[C@]1(c2ccccc2)Oc2ccccc2[C@@H]1N | active |
| C=CCc1ccc2c(c1)OCO2 | active |
| Cc1ccc(N)c(N)c1 | inactive |

###

Test protocol: CCTE_Mundy_HCI_Cortical_NOG_BPCount: CCTE's Neurite Outgrowth Assay in rat cortical cells for Branch Point Count, Mundy Lab (AID 2284237)
Calls of active or inactive are those of the source. The calls were made as follows: active = hit-call score of the fitted dose curve at least 0.9, where 1 is the maximum; inactive = score below 0.9.
Outcomes: active, inactive

| Compound | Class label |
| --- | --- |
| CCCCOC(=O)c1ccccc1C(=O)OCc1ccccc1 | inactive |
| CC(C)(C)C(O)(CCc1ccc(Cl)cc1)Cn1cncn1 (stereo not given) | active |
| CN(C)[C@@H]1C(=O)C(C(N)=O)=C(O)[C@@]2(O)C(=O)C3=C(O)c4c(O)cccc4[C@@](C)(O)[C@H]3C[C@@H]12 | inactive |
| Nc1cc(Cl)cc(C(=O)O)c1Cl | inactive |
| [O-][Cl+]O | inactive |

###

Tgt: Peroxisome proliferator-activated receptor gamma (Homo sapiens)
Test protocol: OT_PPARg_PPARgSRC1_0480: Odyssey Thera (OT) 8-hour Protein-Complementation Assay for Peroxisome Proliferator-activated Receptor Gamma / SRC-1 Co-activator (AID 2283387);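 further: nuclear to cytoplasmic split Venus YFP fluorescence ratio reporting PPARg SRC-1 interaction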
Records with an inconclusive call do not appear. Calls of active or inactive are those of the source. How the source made its calls: active means hit-call score of the fitted dose curve at least 0.9, where 1 is the maximum; inconclusive means response in the unintended direction; inactive means score below 0.9.

| Compound | outcome |
| --- | --- |
| Clc1ccc(C(c2ccc(Cl)cc2)C(Cl)Cl)cc1 | inactive |
| CCOC(=O)[C@]1(c2ccccc2)Oc2ccccc2[C@@H]1N | inactive |
| CCCCC(CC)COC(=O)c1ccc(C(=O)OCC(CC)CCCC)c(C(=O)OCC(CC)CCCC)c1 (configuration not stated) | inactive |
| Cc1ccc(N)cc1 | inactive |
| CN(C)c1ccc(C(=O)c2ccc(N(C)C)cc2)cc1 | inactive |
| C[N+](C)(C)CC1CO1 (configuration not stated) | inactive |
| O=C(Oc1ccc(Br)cc1)N1CCN2CCC1CC2 | inactive |
| O=C(Nc1ccccc1)c1ccccc1I | inactive |
| OCCCBr | inactive |
| [Cl-].[Cl-].[Hg+2] | inactive |
| N#CC(Br)(Br)C(N)=O | inactive |
| CC(O)CCO (configuration not stated) | inactive |
| CC(C)N(Cc1ccccc1)C(=O)C(C)(C)C | inactive |
| CCCCCCCCn1sccc1=O | inactive |
| Cc1ccc(N=C=O)cc1N=C=O | inactive |
| N#CC(Br)Br | inactive |
| O=[N+]([O-])C(Br)(CO)CO | inactive |
| Clc1ccccc1Cl | inactive |
| CCCCOC(=O)c1ccccc1C(=O)OCc1ccccc1 | inactive |
| Cc1cc(N=Nc2ccccc2C)ccc1N | inactive |
| O=[N+]([O-])c1ccc(Oc2ccc(Cl)cc2Cl)cc1 | inactive |
| C1=Cc2cccc3cccc1c23 | inactive |
| CCC12COCN1COC2 | inactive |
| Brc1ccc(Oc2ccccc2)cc1 | inactive |
| O=C(N[C@H](c1ccccc1)[C@@H]1CN2CCC1CC2)c1c(Cl)ccc(C(F)(F)F)c1Cl | inactive |
| CCN(CC)N=O | inactive |
| CS(=O)(=O)NC(=O)c1cc(Oc2ccc(C(F)(F)F)cc2Cl)ccc1[N+](=O)[O-] | inactive |
